biological target: CYP2C19 (Homo sapiens (Human), UniProt P33261); experiment: CYP inhibition, fluorescent, CYP2C19; assay type: in vitro ADME
Sequence (P33261 whole entry, species assumed): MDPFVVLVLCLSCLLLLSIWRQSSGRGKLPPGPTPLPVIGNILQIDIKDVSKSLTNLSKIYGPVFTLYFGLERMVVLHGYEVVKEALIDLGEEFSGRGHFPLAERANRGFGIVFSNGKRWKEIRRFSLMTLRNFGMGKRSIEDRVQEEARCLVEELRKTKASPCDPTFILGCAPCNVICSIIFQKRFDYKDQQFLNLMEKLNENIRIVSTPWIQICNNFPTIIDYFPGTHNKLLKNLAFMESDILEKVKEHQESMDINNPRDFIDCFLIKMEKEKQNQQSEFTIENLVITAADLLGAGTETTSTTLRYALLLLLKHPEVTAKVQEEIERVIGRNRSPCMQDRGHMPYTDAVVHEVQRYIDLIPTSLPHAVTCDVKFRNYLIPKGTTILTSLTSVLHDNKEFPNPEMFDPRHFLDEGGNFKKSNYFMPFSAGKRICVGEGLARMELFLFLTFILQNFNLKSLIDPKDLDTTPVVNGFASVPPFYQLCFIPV
Form field: IC50 (one value per entry).

{"mol smiles": "O=C(c1nc2ncc(CCO)cn2n1)N1C[C@H]2C[C@@H](c3ccccc3C(F)(F)F)C[C@H]2C1", "IC50": "> 100 µM"}

Note down IC50 recorded for O=C(c1nc2ncccn2n1)N1C[C@H]2C[C@@H](c3ccccc3C(F)(F)F)C[C@H]2C1
> 20 µM

Note down IC50 recorded for Cc1ccn2c(C(=O)N3C[C@H]4C[C@@H](c5ccccc5C(F)(F)F)C[C@H]4C3)nnc2n1
> 100 µM

Note down IC50 recorded for Cc1cnc2nc(C(=O)N3C[C@H]4C[C@@H](c5ccccc5C(F)(F)F)C[C@H]4C3)nn2c1
> 100 µM

Note down IC50 recorded for O=C(c1nc2ncc(CCO)cn2n1)N1C[C@@H]2CN(c3ccccc3C(F)(F)F)C[C@@H]2C1
> 20 µM

Note down IC50 recorded for O=C(c1nc2ncc(CCO)cn2n1)N1C[C@@H]2CN(c3cc(F)ccc3C(F)(F)F)C[C@@H]2C1
> 20 µM

----------
molecular target: UniProt P02753
quantity name: IC50 (nM)

{"mol smiles": "O=C(c1nc2ncc(CCO)cn2n1)N1C[C@@H]2CN(c3cc(F)ccc3C(F)(F)F)C[C@@H]2C1", "IC50, nM": 31}

A = Cc1ccn2c(C(=O)N3C[C@H]4C[C@@H](c5ccccc5C(F)(F)F)C[C@H]4C3)nnc2n1
B = Cc1ccn2cc(C(=O)N3C[C@H]4C[C@@H](c5ccccc5OC(F)(F)F)C[C@H]4C3)nc2c1
# min-compare on IC50 between A and B Reply with the label of the item you choose.
A
(A: 45 nM, B: 104 nM)

----------
Form field: pIC50 (one value per entry).
molecular target: CYP2D6 (Homo sapiens (Human), UniProt P10635); test: CYP inhibition, fluorescent, CYP2D6; assay type: in vitro ADME
Sequence (P10635 whole entry, species assumed): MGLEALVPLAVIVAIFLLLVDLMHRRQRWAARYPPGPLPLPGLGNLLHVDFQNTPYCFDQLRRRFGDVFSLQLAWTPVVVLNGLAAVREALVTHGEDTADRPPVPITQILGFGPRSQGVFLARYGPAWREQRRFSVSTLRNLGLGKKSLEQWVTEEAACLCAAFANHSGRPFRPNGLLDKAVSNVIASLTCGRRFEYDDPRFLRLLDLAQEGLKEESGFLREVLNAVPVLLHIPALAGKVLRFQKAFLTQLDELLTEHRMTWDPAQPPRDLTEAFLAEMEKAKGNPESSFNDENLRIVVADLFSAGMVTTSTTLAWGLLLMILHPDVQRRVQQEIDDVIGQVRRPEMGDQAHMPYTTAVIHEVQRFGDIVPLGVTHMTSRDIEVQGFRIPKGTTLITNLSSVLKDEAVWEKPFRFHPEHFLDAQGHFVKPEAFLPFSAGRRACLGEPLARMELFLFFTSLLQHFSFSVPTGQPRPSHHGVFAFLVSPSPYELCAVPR
pIC50: −log10 of the molar value.

Would you please look over these solved cases?
{"mol smiles": "O=C(c1nc2ncc(CCO)cn2n1)N1C[C@H]2C[C@@H](c3ccccc3C(F)(F)F)C[C@H]2C1", "result": "< 4.00"}
{"mol smiles": "O=C(c1nc2ncc(CCO)cn2n1)N1C[C@@H]2CN(c3ccccc3C(F)(F)F)C[C@@H]2C1", "result": "< 4.70"}
{"mol smiles": "O=C(c1nc2ncc(CCO)cn2n1)N1C[C@@H]2CN(c3cc(F)ccc3C(F)(F)F)C[C@@H]2C1", "result": "< 4.70"}

Fill: pIC50 (CYP2D6 (Homo sapiens (Human), UniProt P10635)) for this molecule O=C(c1nc2ncccn2n1)N1C[C@H]2C[C@@H](c3ccccc3C(F)(F)F)C[C@H]2C1
< 4.00

Fill: pIC50 (CYP2D6 (Homo sapiens (Human), UniProt P10635)) for this molecule Cc1ccn2c(C(=O)N3C[C@H]4C[C@@H](c5ccccc5C(F)(F)F)C[C@H]4C3)nnc2n1
< 4.00

----------
For reference, pIC50 measured on human RBP4 (Homo sapiens (Human), UniProt P02753):
pIC50: −log10 of the molar value.
quantity name: pIC50

P = Cc1ccccc1[C@@H]1C[C@@H]2CN(C(=O)c3nc4ncccn4n3)C[C@@H]2C1 [Compound 10a]
Q = COCCc1cnc2nc(C(=O)N3C[C@H]4C[C@@H](c5ccccc5C(F)(F)F)C[C@H]4C3)nn2c1
Identify the entry with the larger pIC50. Options: P and Q Reply with the label of the item you choose.
Q
(Q: 7.17, P: 4.83)

I = O=C(c1nc2nc(C(F)(F)F)ccn2n1)N1C[C@H]2C[C@@H](c3ccccc3OC(F)(F)F)C[C@H]2C1
II = CC(=O)OCCc1cnc2nc(C(=O)N3C[C@H]4C[C@@H](c5ccccc5C(F)(F)F)C[C@H]4C3)nn2c1
Identify the entry with the larger pIC50. Options: I and II Reply with the label of the item you choose.
II

I = NCCc1cnc2nc(C(=O)N3C[C@H]4C[C@@H](c5ccccc5C(F)(F)F)C[C@H]4C3)nn2c1
II = O=C(c1nc2ncccn2n1)N1C[C@H]2C[C@@H](c3cc(F)ccc3C(F)(F)F)C[C@H]2C1
Identify the entry with the larger pIC50. Options: I and II Reply with the label of the item you choose.
II
(II: 7.42, I: 6.61)
